Target of assay: Estrogen receptor (Homo sapiens, UniProt P03372)
Sequence (P03372 whole entry): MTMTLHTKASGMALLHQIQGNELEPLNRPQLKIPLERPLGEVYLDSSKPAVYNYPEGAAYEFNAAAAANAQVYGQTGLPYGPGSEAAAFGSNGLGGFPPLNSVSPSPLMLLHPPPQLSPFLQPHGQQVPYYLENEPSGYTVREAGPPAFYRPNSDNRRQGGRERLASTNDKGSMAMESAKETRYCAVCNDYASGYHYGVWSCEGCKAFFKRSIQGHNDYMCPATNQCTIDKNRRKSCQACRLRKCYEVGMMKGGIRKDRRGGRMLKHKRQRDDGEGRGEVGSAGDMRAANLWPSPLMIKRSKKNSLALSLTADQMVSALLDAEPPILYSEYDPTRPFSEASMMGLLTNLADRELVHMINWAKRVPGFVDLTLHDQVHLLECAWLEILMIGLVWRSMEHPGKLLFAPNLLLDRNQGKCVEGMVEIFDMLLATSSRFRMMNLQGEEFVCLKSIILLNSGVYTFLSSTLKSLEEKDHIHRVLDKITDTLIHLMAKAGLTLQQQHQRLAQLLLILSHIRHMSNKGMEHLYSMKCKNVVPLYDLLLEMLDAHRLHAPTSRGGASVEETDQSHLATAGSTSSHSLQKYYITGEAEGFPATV
Test summary: Transcriptional agonist activity in Chinese hamster ovary cells expressing human Estrogen Receptor alpha
pEC50: −log10 of the molar value.
// pEC50 lookup, one value per entry
Endpoint: pEC50

* Oc1ccc(-c2cccc(-c3ccc(O)cc3)c2)cc1 | 6.10
* Oc1ccc(-c2ccc(-c3ccc(O)cc3)cc2)cc1 | 5.92
* CC1C(=O)c2cc(O)ccc2OC1c1ccc(O)cc1 (stereo unspecified) | 8.40
* Oc1ccc(-c2cc(-c3ccc(O)cc3)cc(-c3ccc(O)cc3)c2)cc1 | 7.10
